Tested on: KM12 colon
TEST_DETAILS: NCI tumour cell line growth inhibition, 48 h
As shown below, each of these molecules has a reported TGI value.

Worked set:
COc1ccc(/C=C2\N=C(c3ccccc3)OC2=O)c(OCc2ccccc2)c1 ... > 100 µM
COc1cc(N=C(N)N=C(N)N)c2ncccc2c1 ... > 100 µM
C/C(=N/O)C1CC=C(S(=O)(=O)c2ccccc2)C1 (stereo unspecified) ... > 100 µM
COc1cc2c(cc1C)NC(=O)/C2=C/c1c(Cl)[nH]c2cc(C)c(OC)cc12 ... 15.5 µM
Cc1cccc(CN(C)c2ccc(CO)c(Cl)c2)c1 ... 72.4 µM

Lab request: please report TGI under test system KM12 colon for O=C(ON=c1c2ccccc2ccc2ccccc12)c1cc([N+](=O)[O-])cc([N+](=O)[O-])c1 > 100 µM

Entry CC(=O)CC(=O)CCCC(=O)Nc1ccc(Cl)cc1C please > 100 µM

Now give it for COC(=O)C12CCC(C(=O)OC)(Cc3c(c4ccccc4n3S(=O)(=O)c3ccccc3)C1)C2=O (stereo unspecified) too. > 100 µM

Also O=C1Cc2cc(CCn3ccnc3)c(Cl)cc2N1 , if possible. 98.4 µM

# iterate: CC(C)=CC/C=C(/C)[C@H]1CC[C@]2(C)[C@@H]1CC[C@@H]1[C@@]3(C)CCC(=O)NC(C)(C)[C@@H]3CC[C@]12C 37.5 µM

How about CCCCC1Cc2cc(O)ccc2-c2n1c1cc(O)ccc1[n+]2C (stereo unspecified) (tested in a mixture with another compound) ? > 100 µM

###

Test system: NCI-H460 lung
TEST_DETAILS: NCI tumour cell line growth inhibition, 48 h
METRIC_NAME: TGI

Below: 5 molecules and their reported TGI.
C=C1c2nc3ccccc3n2C=C(c2ccc(Cl)cc2)N1c1ccc(OCCN2CCOCC2)cc1 ... > 100 µM
CCCCCCCCCc1cc(O)c(O)cc1CCCCCCCCC ... > 10 µM
O=C(NCCCN1CCN(CCCNC(=O)c2cnc3ccccc3n2)CC1)c1cnc2ccccc2n1 ... > 100 µM
O=[N+]([O-])c1cccc(C2SCc3nc4ccccc4n32)c1 (stereo unspecified) ... > 100 µM
O=C1Cc2cc(CCn3ccnc3)c(Cl)cc2N1 ... > 100 µM

Continue with the next molecule.
Fill in: TGI of Cc1ccnc(NS(=O)(=O)c2ccc(NC(=O)c3ccc4nc5ccccc5c(Nc5ccc(S(=O)(=O)Nc6nccc(C)n6)cc5)c4c3)cc2)n1 is ___ > 100 µM

###

System: BT-549 breast
TEST_DETAILS: NCI tumour cell line growth inhibition, 48 h
# if value of TGI reaches 40 µM, tag Y; if it stays below, tag N

// below: answered compounds
C[N+](C)(C)CCOP(=O)(O)OP(=O)([O-])OCC1CCC(n2ccc(N)nc2=O)O1 (stereo unspecified) ... Y
CCOC(=O)C(SCCO)C(C(=O)OCC)n1ccc(N)nc1=O (stereo unspecified) ... Y

Is TGI for NC(=O)c1cnc2sc3ccccc3n2c1=O at or above 40 µM? Y

Also need Clc1cc2nc(C3CCCO3)[nH]c2cc1Cl (stereo unspecified) , thanks. Y

Continue with Cc1ccc(/C=C(\C#N)n2nnc3cc(Cl)c(Cl)cc32)cc1 N

Moving on to the next compound: O=C1C(NS(=O)(=O)c2ccccc2)=C(n2cnc3ccccc32)C(=O)c2ccccc21 Y

Further, for CC(C)=CC/C=C(/C)[C@H]1CC[C@]2(C)[C@@H]1CC[C@@H]1[C@@]3(C)CCC(=O)NC(C)(C)[C@@H]3CC[C@]12C ? Y

Please give the result for CC/C(=N\Nc1nc2ccccc2n1C)c1ccccn1 too. N

Now this one: COC1/C=C/C(C)C(OC)CC(O)/C=C/C(C)C(C(C)C(OC)C(C)CCC(=O)C(C)C(C/C=C/N(C)C=O)OC)OC(=O)/C=C/C=C(\C)CC(OC)C(OC)C2=CC(=O)O[C@@H](C(C)C(OC)C1)[C@H]2O (stereo partly specified) N

Another: O=C(Nc1cccc(Cl)c1)Nc1cccc(Cl)c1 Y

Another compound to check: CC(=O)Nc1ccc2nncnc2c1 Y

And Fc1ccc(-c2nc(-c3nc4ccc(Cl)cc4[nH]3)cc3c2[nH]c2ccccc23)cc1 ? N

O=C1CCc2c3c(c4c([nH]c5ccccc54)c2CC1)C(=O)NC3=O , same question. N
